biological target: VCB complex (Homo sapiens, UniProt P40337); assay: Size exclusion chromatography of VCB complex formation; assay type: binding; conditions: SEC, VCB 50 μM, compound 30 μM
Sequence (P40337 54-213 limits assumed): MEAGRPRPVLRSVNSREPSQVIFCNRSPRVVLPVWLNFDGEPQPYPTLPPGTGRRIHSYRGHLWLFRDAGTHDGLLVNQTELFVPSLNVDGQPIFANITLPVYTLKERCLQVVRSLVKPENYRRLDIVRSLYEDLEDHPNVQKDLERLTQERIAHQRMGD
Sequence (Q15370 1-104 partner limits assumed): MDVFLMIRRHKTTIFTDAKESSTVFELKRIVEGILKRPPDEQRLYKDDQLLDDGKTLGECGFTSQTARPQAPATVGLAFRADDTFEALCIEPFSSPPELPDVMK
Sequence (Q15369 17-112 partner limits assumed): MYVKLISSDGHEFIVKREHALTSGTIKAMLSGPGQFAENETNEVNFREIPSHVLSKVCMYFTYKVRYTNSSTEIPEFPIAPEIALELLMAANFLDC
Measured Parameter: shift of VCB peak / ternary complex formation

{"columns": ["Smiles Code", "Reported"],
 "data": [
  ["Cc1ncsc1-c1ccc(CNC(=O)[C@H]2C[C@@H](O)CN2C(=O)[C@H](NC(=O)COCCOCCOCCOCCOCC(=O)N[C@H](C(=O)N2C[C@H](O)C[C@H]2C(=O)NCc2ccc(-c3scnc3C)cc2)C(C)(C)C)C(C)(C)C)cc1", "no shift"],
  ["Cc1ncsc1-c1ccc(CNC(=O)[C@@H]2C[C@H](O)CN2C(=O)[C@@H](NC(=O)COCCOCCOCCOCCOCCOCC(=O)N[C@H](C(=O)N2C[C@@H](O)C[C@H]2C(=O)NCc2ccc(-c3scnc3C)cc2)C(C)(C)C)C(C)(C)C)cc1", "no shift"]
]}

Values from patent US11261179B2
